Assay Target: recombinant human 17β-hydroxysteroid dehydrogenase type 1 (Homo sapiens, UniProt P14061)
Construct: made in house; host or cells: Sf9 insect cells (baculovirus, Bac to Bac Expression System)
Test Protocol: Inhibition of recombinant human 17β-hydroxysteroid dehydrogenase type 1 (3H-estrone to estradiol conversion, HPLC)
Type: biochemical
Experimental Setup: 0.5 h; inhibitor concentration 1 μm; read-out: Inhibition of rec. 17β-HSD1 (% inhibition)
compounds and their reported inhibition at 1 µM

Compound: CCOc1cc2c(cc1O)CC[C@H]1[C@@H]3[C@@H](CCCC(=O)N4CCCCC4)CC(=O)[C@@]3(C)CC[C@H]21 [Compound 55]
inhibition at 1 µM [%]: 71.9
--
Compound: C[C@]12CC[C@@H]3c4ccc(O)cc4CC[C@H]3[C@@H]1[C@@H](CCCC(=O)N1CCCCC1)CC2(F)F [Compound 113]
inhibition at 1 µM [%]: 76.9
--
Compound: C[C@]12CC[C@@H]3c4ccc(O)cc4CC[C@H]3[C@@H]1[C@@H](CCCC(=O)NCc1ccc(O)c(O)c1)CC2(F)F [Compound 109]
inhibition at 1 µM [%]: 70.7
--
Compound: COc1cc2c(cc1O)CC[C@H]1[C@@H]3[C@@H](CCCC(=O)NC4CCCCC4)CC(=O)[C@@]3(C)CC[C@H]21 [Compound 67]
inhibition at 1 µM [%]: 73.2

----------
Assay Target: recombinant human 17β-hydroxysteroid dehydrogenase type 1 (Homo sapiens)
Construct: made in house; host or cells: Sf9 insect cells (baculovirus, Bac to Bac Expression System)
Test Protocol: Inhibition of recombinant human 17β-hydroxysteroid dehydrogenase type 1 (3H-estrone to estradiol conversion, HPLC)
Format: biochemical
Experimental Setup: inhibitor concentration 100 nM; read-out: Inhibition of rec. 17β-HSD1 (% inhibition)
Kindly return 1 (yes) if reported inhibition at 0.1 µM is no lower than 50%; return 0 (no) if it is lower.

Sample Smiles: C[C@]12CC[C@@H]3c4ccc(O)cc4CC[C@H]3[C@@H]1[C@H](CCC(=O)NCc1ccccc1)CC2(F)F
Assay Target: recombinant human 17β-hydroxysteroid dehydrogenase type 1 (Homo sapiens)
Class Assignment: 0 (no)
--
Sample Smiles: C[C@]12CC[C@@H]3c4ccc(O)cc4CC[C@H]3[C@@H]1[C@H](CCCC(=O)N1CCOCC1)CC2(F)F
Assay Target: recombinant human 17β-hydroxysteroid dehydrogenase type 1 (Homo sapiens)
Class Assignment: 1 (yes)
--
Sample Smiles: COc1cc2c(cc1O)CC[C@H]1[C@@H]3[C@@H](CCCC(=O)NC4CCCCC4)CC(=O)[C@@]3(C)CC[C@H]21
Assay Target: recombinant human 17β-hydroxysteroid dehydrogenase type 1 (Homo sapiens)
Class Assignment: 0 (no)
--
Sample Smiles: C[C@]12CC[C@@H]3c4ccc(O)cc4CC[C@H]3[C@@H]1[C@@H](CCCC(=O)NCc1ccc(O)c(O)c1)CC2(F)F
Assay Target: recombinant human 17β-hydroxysteroid dehydrogenase type 1 (Homo sapiens)
Class Assignment: 0 (no)
--
Sample Smiles: C[C@]12CC[C@@H]3c4ccc(O)cc4CC[C@H]3[C@@H]1[C@@H](CCCC(=O)N1CCOCC1)CC2(F)F
Assay Target: recombinant human 17β-hydroxysteroid dehydrogenase type 1 (Homo sapiens)
Class Assignment: 0 (no)
--
Sample Smiles: CCCc1cc2c(cc1O)CC[C@H]1[C@@H]3[C@H](CCCC(=O)NCc4ccccc4)CC(=O)[C@@]3(C)CC[C@H]21
Assay Target: recombinant human 17β-hydroxysteroid dehydrogenase type 1 (Homo sapiens)
Class Assignment: 1 (yes)
--
Sample Smiles: CCCc1cc2c(cc1O)CC[C@H]1[C@@H]3[C@H](CCCC(=O)NCCc4c[nH]c5c(C)cccc45)CC(=O)[C@@]3(C)CC[C@H]21
Assay Target: recombinant human 17β-hydroxysteroid dehydrogenase type 1 (Homo sapiens)
Class Assignment: 1 (yes)
--
Sample Smiles: CCN(CC)C(=O)CC[C@@H]1CC(F)(F)[C@@]2(C)CC[C@@H]3c4ccc(O)cc4CC[C@H]3[C@H]12
Assay Target: recombinant human 17β-hydroxysteroid dehydrogenase type 1 (Homo sapiens)
Class Assignment: 1 (yes)
--
Sample Smiles: Cc1cnc(NC(=O)CC[C@@H]2CC(F)(F)[C@@]3(C)CC[C@@H]4c5ccc(O)cc5CC[C@H]4[C@H]23)s1
Assay Target: recombinant human 17β-hydroxysteroid dehydrogenase type 1 (Homo sapiens)
Class Assignment: 1 (yes)
--
Sample Smiles: COc1cc(CNC(=O)CC[C@@H]2CC(F)(F)[C@@]3(C)CC[C@@H]4c5ccc(O)cc5CC[C@H]4[C@H]23)cc(OC)c1
Assay Target: recombinant human 17β-hydroxysteroid dehydrogenase type 1 (Homo sapiens)
Class Assignment: 0 (no)
--
Sample Smiles: C[C@]12CC[C@@H]3c4ccc(O)cc4CC[C@H]3[C@@H]1[C@H](CCC(=O)NCc1ccc3c(c1)OCO3)CC2(F)F
Assay Target: recombinant human 17β-hydroxysteroid dehydrogenase type 1 (Homo sapiens)
Class Assignment: 0 (no)
--
Sample Smiles: C[C@]12CC[C@@H]3c4ccc(O)cc4CC[C@H]3[C@@H]1[C@@H](CCCC(=O)NCc1ccccc1)CC2(F)F
Assay Target: recombinant human 17β-hydroxysteroid dehydrogenase type 1 (Homo sapiens)
Class Assignment: 0 (no)

----------
compounds and their reported inhibition at 0.1 µM
Assay Target: recombinant human 17β-hydroxysteroid dehydrogenase type 1 (Homo sapiens, UniProt P14061)
Construct: made in house; host or cells: Sf9 insect cells (baculovirus, Bac to Bac Expression System)
Sequence (P14061 1-328): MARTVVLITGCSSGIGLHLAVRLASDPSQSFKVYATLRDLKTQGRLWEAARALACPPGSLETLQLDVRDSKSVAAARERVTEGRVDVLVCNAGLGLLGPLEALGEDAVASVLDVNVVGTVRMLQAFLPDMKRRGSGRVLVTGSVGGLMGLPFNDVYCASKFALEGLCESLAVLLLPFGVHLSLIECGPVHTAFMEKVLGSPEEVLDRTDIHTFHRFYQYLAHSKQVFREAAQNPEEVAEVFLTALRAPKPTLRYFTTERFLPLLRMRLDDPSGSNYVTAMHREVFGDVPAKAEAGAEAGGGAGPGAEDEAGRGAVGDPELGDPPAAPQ
Test Protocol: Inhibition of recombinant human 17β-hydroxysteroid dehydrogenase type 1 (3H-estrone to estradiol conversion, HPLC)
Type: biochemical
Experimental Setup: inhibitor concentration 100 nM; read-out: Inhibition of rec. 17β-HSD1 (% inhibition)

Sample Smiles: Cc1cccc2c(CCNC(=O)CCC[C@H]3CC(F)(F)[C@@]4(C)CC[C@@H]5c6ccc(O)cc6CC[C@H]5[C@H]34)c[nH]c12
inhibition at 0.1 µM [%]: 50.6
//
Sample Smiles: CCCc1cc2c(cc1O)CC[C@H]1[C@@H]3[C@H](CCCC(=O)NCc4ccc5c(c4)OCO5)CC(=O)[C@@]3(C)CC[C@H]21
inhibition at 0.1 µM [%]: 39.8
//
Sample Smiles: C[C@]12CC[C@@H]3c4ccc(O)cc4CC[C@H]3[C@@H]1[C@H](CCC(=O)N1CCCCC1)CC2(F)F
inhibition at 0.1 µM [%]: 19.8
//
Sample Smiles: COc1cc2c(cc1O)CC[C@H]1[C@@H]3[C@@H](CCCC(=O)NCc4ccccc4)CC(=O)[C@@]3(C)CC[C@H]21
inhibition at 0.1 µM [%]: 45.8
//
Sample Smiles: C[C@]12CC[C@@H]3c4ccc(O)cc4CC[C@H]3[C@@H]1[C@@H](CCCC(=O)NC1CCCCC1)CC2(F)F
inhibition at 0.1 µM [%]: 41.6
//
Sample Smiles: CCOc1cc2c(cc1O)CC[C@H]1[C@@H]3[C@@H](CCCC(=O)NCCc4c[nH]c5c(C)cccc45)CC(=O)[C@@]3(C)CC[C@H]21
inhibition at 0.1 µM [%]: 50
//
Sample Smiles: C[C@]12CC[C@@H]3c4ccc(O)cc4CC[C@H]3[C@@H]1[C@H](CCC(=O)NCc1ccc(O)c(O)c1)CC2(F)F
inhibition at 0.1 µM [%]: 21.1
//
Sample Smiles: C[C@]12CC[C@@H]3c4ccc(O)cc4CC[C@H]3[C@@H]1[C@H](CCCC(=O)N1CCOCC1)c1cn[nH]c12
inhibition at 0.1 µM [%]: 63
//
Sample Smiles: CCCc1cc2c(cc1O)CC[C@H]1[C@@H]3[C@H](CCCC(=O)N(C)CCc4ccc(OC)c(OC)c4)CC(=O)[C@@]3(C)CC[C@H]21
inhibition at 0.1 µM [%]: 51
//
Sample Smiles: COc1cc2c(cc1O)CC[C@H]1[C@@H]3[C@@H](CCCC(=O)N4CCCCC4)CC(=O)[C@H]3CC[C@H]21
inhibition at 0.1 µM [%]: 40.6
//
Sample Smiles: COc1ccc(CCN(C)C(=O)CCC[C@H]2CC(F)(F)[C@@]3(C)CC[C@@H]4c5ccc(O)cc5CC[C@H]4[C@H]23)cc1OC
inhibition at 0.1 µM [%]: 49.3
